- System: Staphylococcus aureus ATCC29213
- assayExplanation: MIC of nematophin and its derivatives on Staphylococcus aureus ATCC29213
- Format: cell-based
- measurementConditions: Table 2, similar bioassays as for nematophin, read-out: Minimum Inhibitory Concentration (MIC) of the derivatives of nematophin
Entries and their measured MIC follow.
Please state the figure in mg/L; there is no need to write the unit.

Consider the following illustrative entries.
compound	system	MIC [mg/L]
CCC(C)C(=O)C(=O)OCCc1c[nH]c2ccccc12 (stereo not shown)	Staphylococcus aureus ATCC29213	25
CC(C)C(=O)C(=O)NCCc1c[nH]c2ccccc12 [MAMIDE]	Staphylococcus aureus ATCC29213	3
CCC(C)C(=O)C(=O)NCCc1c[nH]c2ccc(OC)cc12 (stereo not shown)	Staphylococcus aureus ATCC29213	3
CCC(=O)C(=O)NCCc1c[nH]c2ccccc12 [BAMIDE, 3-indoleethyl(2'-oxo)butanamide]	Staphylococcus aureus ATCC29213	100
CCC(C)C(=O)C(=O)NCCc1c[nH]c2cc(F)ccc12 (stereo not shown)	Staphylococcus aureus ATCC29213	0.7
CC(=O)C(=O)NCCc1c[nH]c2ccccc12 [PAMIDE, 3-indoleethyl(2'-oxo)propanamide]	Staphylococcus aureus ATCC29213	100

Turning now to a further record.
Entry CCC(C)C(=O)C(=O)NCCc1c[nH]c2ccc(C)cc12 (stereo not shown) , MIC reported as 3
